- Measurement Protocol: liver microsomal stability
- Format: in vitro ADME
- Protocol Conditions: Sprague-Dawley, rat, liver microsomes
// remaining at 1 h, 2 µM lookup, one value per entry

{"columns": ["Compound", "remaining at 1 h, 2 µM / %"],
 "data": [
  ["NC(=O)c1cc(-c2ccc(OCCF)cc2F)c2ccc(CN3C(=O)CCC3=O)cc2n1 [FEQCA]", 70.1],
  ["COc1ccc(-c2cc(C(N)=O)nc3cc(CN4C(=O)CCC4=O)ccc23)c(F)c1 [QCA]", 64.4],
  ["NC(=O)c1cc(-c2ccc(OCCCF)cc2F)c2ccc(CN3C(=O)CCC3=O)cc2n1 [FPQCA]", 64.6]
]}

----------
- Measurement Protocol: LogP, shake flask method
- Assay type: physicochemical
- Protocol Conditions: n-octanol/water
// logP lookup, one value per entry

{"columns": ["Cpd Smiles", "logP"],
 "data": [
  ["NC(=O)c1cc(-c2ccc(OCCCF)cc2F)c2ccc(CN3C(=O)CCC3=O)cc2n1", 1.99],
  ["NC(=O)c1cc(-c2ccc(OCCF)cc2F)c2ccc(CN3C(=O)CCC3=O)cc2n1", 1.75],
  ["COc1ccc(-c2cc(C(N)=O)nc3cc(CN4C(=O)CCC4=O)ccc23)c(F)c1", 1.27]
]}
